Biological target: T1, ECF11_3726
T1 chain: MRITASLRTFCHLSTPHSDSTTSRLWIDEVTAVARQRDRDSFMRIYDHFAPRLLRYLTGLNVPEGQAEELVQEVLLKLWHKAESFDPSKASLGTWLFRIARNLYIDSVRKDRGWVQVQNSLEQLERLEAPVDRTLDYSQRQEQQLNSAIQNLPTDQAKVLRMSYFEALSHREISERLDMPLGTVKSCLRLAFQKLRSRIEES
Entries and their fold repression
Keep the answer to the number alone.

Below: 2 binders and their reported fold repression.
>  <binder>
AS15_436 (protein) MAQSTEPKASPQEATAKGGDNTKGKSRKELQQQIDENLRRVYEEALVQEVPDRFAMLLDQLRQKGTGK

>  <reported-endpoint>
fold repression

>  <assay-value>
7.87

$$$$
>  <binder>
AS25_1645 (protein) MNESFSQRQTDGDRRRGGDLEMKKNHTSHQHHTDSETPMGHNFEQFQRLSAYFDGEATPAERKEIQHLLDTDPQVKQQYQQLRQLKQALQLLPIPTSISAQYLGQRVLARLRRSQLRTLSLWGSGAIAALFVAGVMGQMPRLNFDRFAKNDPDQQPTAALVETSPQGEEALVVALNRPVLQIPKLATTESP

>  <reported-endpoint>
fold repression

>  <assay-value>
13.1

$$$$

Proceeding to the next binder to report its fold repression.
The binder identified as AS35_3582 (protein) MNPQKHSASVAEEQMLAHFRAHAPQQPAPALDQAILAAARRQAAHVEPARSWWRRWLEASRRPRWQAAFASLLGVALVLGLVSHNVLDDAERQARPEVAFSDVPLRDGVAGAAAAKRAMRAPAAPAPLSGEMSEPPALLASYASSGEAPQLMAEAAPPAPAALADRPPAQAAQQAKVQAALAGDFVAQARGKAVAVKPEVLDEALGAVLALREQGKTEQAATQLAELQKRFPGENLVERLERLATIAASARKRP registered its fold repression at 18.8

Value source: paper PMC3817407
